Items are presented alongside their recorded CC50.
Tested on: C6
Method: Cytotoxicity against rat C6 cells after 3 days treated 4 hrs before db-cAMP challenge by MTT assay
Assay type: functional
Protocol conditions: read-out: LC50 (the source's name)
Measurement type: CC50 (nM)

| Molecule | Target entity | Measurement type | Data value |
| --- | --- | --- | --- |
| CC[C@]1(O)C[C@@H]2CN(CCc3c([nH]c4ccccc34)[C@@](C(=O)OC)(c3cc4c(cc3OC)N(C)[C@H]3[C@@](O)(C(=O)OC)[C@H](OC(C)=O)[C@]5(CC)C=CCN6CC[C@]43[C@@H]65)C2)C1 | C6 | CC50 | 66 |
| C=CC[C@@H](CC/C(C)=C/C=C/CC/C=C\[C@@H]1CSC([C@@H]2C[C@@H]2C)=N1)OC | C6 | CC50 | 11 |
| COc1cc2c(c(OC)c1OC)-c1ccc(OC)c(=O)cc1[C@@H](NC(C)=O)CC2 | C6 | CC50 | 200 |
| COc1cc([C@@H]2c3cc4c(cc3[C@@H](O[C@@H]3O[C@@H]5CO[C@@H](C)O[C@H]5[C@H](O)[C@H]3O)[C@H]3COC(=O)[C@H]23)OCO4)cc(OC)c1O [ETOPOSIDE] | C6 | CC50 | 120 |
